tested on: SK-PN-DW (Other Solid Carcinomas); assay: combination Emax (second highest fraction inhibited in the dose matrix, 72 h); higher = more inhibition; extreme values may be limits of the assay

compound	measured-target	combination Emax
Cc1cc2ncnn2cc1Nc1ncc2c(n1)n(C1CCOCC1)c(=O)n2C [AZD7648] + CN(C)CCCOc1ccc(-c2ccc3ncc4c(c3c2)n(C2CCOCC2)c(=O)n4C)cn1 [AZD0156] (first compound max 10 µM, 7x7, partner max 1 µM)	SK-PN-DW (Other Solid Carcinomas)	0.303
COc1cc2c(cc1OCCCCCOc1cc3c(cc1OC)C(=O)N1C=C(C)C[C@H]1C=N3)N=C[C@@H]1CC(C)=CN1C2=O [SG3199] + O=C(c1cc(Cc2n[nH]c(=O)c3ccccc23)ccc1F)N1CCN(C(=O)C2CC2)CC1 [Olaparib] (first compound max 0.001 µM, 7x7, partner max 10 µM)	SK-PN-DW (Other Solid Carcinomas)	0.393
CN(CCO)CC[C@H](CSc1ccccc1)Nc1ccc(S(=O)(=O)NC(=O)c2ccc(N3CCC([C@@H](O)c4ccccc4-c4ccc(Cl)cc4)CC3)cc2)cc1S(=O)(=O)C(F)(F)F [AZD4320] + C[C@@H](Nc1cc(F)cc(F)c1)c1cc(C(=O)N(C)C)cc2c(=O)cc(N3CCOCC3)oc12 [AZD8186] (first compound max 1 µM, 7x7, partner max 3 µM)	SK-PN-DW (Other Solid Carcinomas)	0.757
CC1(C)CCC(CN2CCN(c3ccc(C(=O)NS(=O)(=O)c4ccc(NCC5CCOCC5)c([N+](=O)[O-])c4)c(Oc4cnc5[nH]ccc5c4)c3)CC2)=C(c2ccc(Cl)cc2)C1 [Venetoclax] + Cc1cc2ncnn2cc1Nc1ncc2c(n1)n(C1CCOCC1)c(=O)n2C [AZD7648] (first compound max 1 µM, 7x7, partner max 10 µM)	SK-PN-DW (Other Solid Carcinomas)	0.856
Cc1c2c(nn1C)CSCc1cc(n(C)n1)CSc1cc(c3ccccc3c1)OCCCc1c(C(=O)O)n(C)c3c-2c(Cl)ccc13 [AZD5991] + CC(=O)O[C@H]1C(=O)[C@@]2(C)[C@H]([C@H](OC(=O)c3ccccc3)[C@]3(O)C[C@H](OC(=O)[C@H](O)[C@@H](NC(=O)c4ccccc4)c4ccccc4)C(C)=C1C3(C)C)[C@]1(OC(C)=O)CO[C@@H]1C[C@@H]2O [Paclitaxel] (first compound max 1 µM, 7x7, partner max 3 µM)	SK-PN-DW (Other Solid Carcinomas)	0.952
CC1(C)CCC(CN2CCN(c3ccc(C(=O)NS(=O)(=O)c4ccc(NCC5CCOCC5)c([N+](=O)[O-])c4)c(Oc4cnc5[nH]ccc5c4)c3)CC2)=C(c2ccc(Cl)cc2)C1 [Venetoclax] + C[C@@H]1COCCN1C2=NC(=NC(=C2)C3(CC3)[S@](=N)(=O)C)C4=C5C=CNC5=NC=C4 [AZD6738] (first compound max 1 µM, 7x7, partner max 10 µM)	SK-PN-DW (Other Solid Carcinomas)	0.929
CN(CCO)CC[C@H](CSc1ccccc1)Nc1ccc(S(=O)(=O)NC(=O)c2ccc(N3CCC([C@@H](O)c4ccccc4-c4ccc(Cl)cc4)CC3)cc2)cc1S(=O)(=O)C(F)(F)F [AZD4320] + C=CCn1c(=O)c2cnc(Nc3ccc(N4CCN(C)CC4)cc3)nc2n1-c1cccc(C(C)(C)O)n1 [AZD1775] (first compound max 1 µM, partner max 1 µM)	SK-PN-DW (Other Solid Carcinomas)	0.898
Cc1c2c(nn1C)CSCc1cc(n(C)n1)CSc1cc(c3ccccc3c1)OCCCc1c(C(=O)O)n(C)c3c-2c(Cl)ccc13 [AZD5991] + Nc1ccn([C@@H]2O[C@H](CO)[C@@H](O)C2(F)F)c(=O)n1 [Gemcitabine] (first compound max 1 µM, 7x7, partner max 0.3 µM)	SK-PN-DW (Other Solid Carcinomas)	0.815
N#Cc1cnc(Nc2cc(NC[C@H]3CNCCO3)c(C(F)(F)F)cn2)cn1 [SRA737] + Nc1ccn([C@@H]2O[C@H](CO)[C@@H](O)C2(F)F)c(=O)n1 [Gemcitabine] (first compound max 10 µM, 7x7, partner max 0.3 µM)	SK-PN-DW (Other Solid Carcinomas)	0.933
